- Tested on: spontaneously hypertensive rats
- protocolDetails: Activity against blood pressure (Test Example 1-1), tail-cuff measurement after oral administration
- Type: in vivo
- conditionSet: Rattus norvegicus, 1 h, dose 10 mg/kg, one hour after administration, read-out: Change rate of blood pressure 1 hr. value
Where a name gives a salt, the structure may show the parent alone.
Reported change in vivo at 10 mg/kg values for a set of molecules

molecule="COC(=O)C1=C(C)NC(C)=C(C(=O)OCCN(C)Cc2ccccc2)C1c1cccc([N+](=O)[O-])c1 (stereo not drawn) [Nicardipine, hydrochloride, reference compound]" result=-35%
molecule="COCCOC(=O)C1=C(C)NC(C)=C(C(=O)OC(C)C)C1c1cccc([N+](=O)[O-])c1 (stereo not drawn) [Nimodipine, reference compound]" result=-11%
molecule="C#Cc1cccc(C2C(C(=O)OC)=C(C)NC(C)=C2C(=O)OCCCN2CCN(c3ccccc3OC)CC2)c1 (stereo not drawn)" result=-5.3%
molecule="C#Cc1cccc(C2C(C(=O)OC)=C(C)NC(C)=C2C(=O)OCCN2CCN(C(c3ccccc3)c3ccccc3)CC2)c1 (stereo not drawn)" result=-39%
molecule="C#Cc1cccc(C2C(C(=O)OC)=C(C)NC(C)=C2C(=O)OCCN2CCN(C(c3ccc(F)cc3)c3ccc(F)cc3)CC2)c1 (stereo not drawn)" result=-41.2%

Now turn to the next molecule.
Summary for this molecule, C#Cc1cccc(C2C(C(=O)OC)=C(C)NC(C)=C2C(=O)OCCN2CCN(C(c3ccc(C)cc3)c3ccc(C)cc3)CC2)c1 (stereo not drawn) : change in vivo at 10 mg/kg is -41.5%
